- TARGET SYSTEM: Affinity-purified MHC class I molecules K^b with human β2m (mouse (H-2^b); human)
MEASURE NAME: pIC50
One number for each entry, as −log10 of the molar value.

Complete the entry with pIC50 for IVSPFIPL [K^b/S208-215-binding peptide 1 of HBsAgadw2 (IVSPFIPL)]
6.11

Just for reference, patent US20060233832A1 is where these values come from.
